Data origin: ChEMBL document CHEMBL1201862

# method.notes: DRD fibroblast viability loss – cell-based, non-viral oncogenic, luminescence, dose response (AID 1934)
# Assay type: functional
# condition.details: Homo sapiens
Active and inactive are the calls of the source. No stated cut-off is given here; in the data, actives have a measured EC50 and inactives only a lower limit.
reported.endpoint: EC50

>>> value_reported("c1ccc(-c2nc(N3CCCCCC3)c3ccccc3n2)nc1")
"21 µM (active)"
>>> value_reported("Cc1ccc(/C=N/NC(=O)c2cc(-c3ccncc3)nc3ccccc23)o1")
"2.27 µM (active)"
>>> value_reported("COc1ccc(-n2nc(C(=O)NCC(=O)Nc3ccccn3)c3ccccc3c2=O)cc1Cl")
"28.5 µM (active)"
>>> value_reported("C/C(=N\\NC(=O)c1ccccc1Cl)c1ccccn1")
"17.5 µM (active)"
